- methodSummary: gradient 5% acetonitrile 3 min, to 50% in 2 min, to 85% in 15 min, held 3 min, 100 µL/min
- details: column: Zorbax Extend-C18 2.1 x 50 mm; eluents: water / acetonitrile, 0.1% formic acid
Labelling field: enter true (1) if recorded RP-LC retention time is less than 800 s. Enter false (0) if it equals or exceeds that cut-off.

- compound: "COc1ccc(OC)c(CNC(=O)COc2ccc(NC(=O)C3CC3)cn2)c1"
  labelValue: "true (1)"
- compound: "CSc1cccc(NC(=O)N2CCC(N3CCN(Cc4ccccc4)C(=O)C3=O)CC2)c1"
  labelValue: "true (1)"
- compound: "Cc1cnc(-c2ccncc2)n1CC1CN(S(=O)(=O)c2ccc3c(c2)CCC3)C1"
  labelValue: "true (1)"
- compound: "CCC(C(=O)NCCc1c[nH]c2ccc(Cl)cc12)n1c2ccccc2c2cnn(C)c(=O)c21 (stereo not drawn)"
  labelValue: "false (0)"
- compound: "Cc1ccc(NC(=O)C2CCCN(c3cc(=O)n(C)c(=O)n3C)C2)cc1C (stereo not drawn)"
  labelValue: "true (1)"
- compound: "COc1cc(OC)cc(C(=O)Nc2ccc(N3CCN(C4CCCC4)C3=O)nc2)c1"
  labelValue: "false (0)"
- compound: "O=C(Nc1c(C(=O)NCCc2ccccc2)[nH]c2ccc(F)cc12)c1ccccc1"
  labelValue: "false (0)"
- compound: "COc1ccc(NC(=O)N2CC(Oc3ccc(-c4nc(-c5ccccc5)no4)cc3)C2)cc1"
  labelValue: "false (0)"
- compound: "N#C/C(=C\\c1cccnc1)c1ccc(Br)cc1"
  labelValue: "false (0)"
- compound: "Cc1cc(N2CCC(NC(=O)Nc3ccc(C)c(F)c3)C2=O)ccc1F (stereo not drawn)"
  labelValue: "false (0)"
- compound: "O=C(NCCc1nc2cccnc2n1Cc1ccccc1)Nc1ccc2c(c1)OCO2"
  labelValue: "true (1)"
- compound: "COc1ccc(S(=O)(=O)N2CC3CN(C(=O)Cc4cccc(F)c4)CC(C2)O3)cc1"
  labelValue: "false (0)"
- compound: "Cc1nc(C(=O)N2CCCn3ccnc3C2C(C)C)co1 (stereo not drawn)"
  labelValue: "true (1)"
- compound: "O=C(Cn1c(C(F)(F)F)nc2cc3c(cc21)OCCO3)NCC1CCCO1 (stereo not drawn)"
  labelValue: "true (1)"
- compound: "Cc1csc(-c2cc(S(=O)(=O)Nc3ccc(F)c(Cl)c3)c(C)s2)n1"
  labelValue: "false (0)"
- compound: "CN(C)CCCn1cc2c(c1-c1cccc(Br)c1)c(=O)n(C)c(=O)n2C"
  labelValue: "true (1)"
- compound: "Cc1nc(-c2csc(S(=O)(=O)N3CCCC(C(=O)NCCc4sccc4C)C3)c2)no1 (stereo not drawn)"
  labelValue: "false (0)"
- compound: "COCCNC(=O)CN1C(=O)C2CCCCN2c2ccc(C(=O)N3CCCCC3)cc21 (stereo not drawn)"
  labelValue: "true (1)"
- compound: "CN(C1CCc2nn(CC3CC3)c(=O)n2CC1)S(=O)(=O)c1cccnc1 (stereo not drawn)"
  labelValue: "true (1)"
- compound: "Cc1nnc(-c2cc(NC(=O)c3cc(F)ccc3Cl)c(C)s2)o1"
  labelValue: "false (0)"
- compound: "CC(C)N1CCN(c2ccc3nnc(C4CCC4)n3n2)CC1"
  labelValue: "true (1)"
- compound: "O=C(CSc1nnnn1-c1ccccc1)NCCc1ccc2c(c1)OCCO2"
  labelValue: "true (1)"
- compound: "CC(C)n1c(N2CCN(C(=O)CCc3nc4ccccc4[nH]3)CC2)cc(=O)n(C(C)C)c1=O"
  labelValue: "true (1)"
- compound: "CCN(Cc1ccccc1)C(=O)CSc1cc(N2CCN(c3ccc(OC)cc3)CC2)ncn1"
  labelValue: "false (0)"
- compound: "COc1ccc(C(=O)Nc2c(-c3ccccc3)nc3cc(C)ccn23)c(OC)c1"
  labelValue: "true (1)"
- compound: "c1ccc(-n2ncc3c(Nc4ccc5c(c4)OCO5)nc(N4CCCC4)nc32)cc1"
  labelValue: "false (0)"
- compound: "O=C(Nc1cccc(-c2cn3cccnc3n2)c1)c1ccccc1F"
  labelValue: "true (1)"
- compound: "CC(NC(=O)Cn1ncc2c(N3CCN(c4ccccn4)CC3)ncnc21)c1ccccc1 (stereo not drawn)"
  labelValue: "true (1)"
- compound: "COc1cccc(-c2cc3n(n2)CCCN(Cc2cccnc2)C3)c1"
  labelValue: "true (1)"
- compound: "O=C(N[C@H]1C[C@@H]2C[C@H]1N(C(=O)Cc1cccs1)C2)c1ccccc1"
  labelValue: "true (1)"
- compound: "CCOC(=O)c1[nH]c(C)c(C(=O)C(C)N(CCC(C)C)C(=O)c2ccc(C)cc2)c1C (stereo not drawn)"
  labelValue: "false (0)"
- compound: "Cc1ccc(Cn2c(N3CCCC(C(=O)NCc4cccs4)C3)nc3ccsc3c2=O)cc1 (stereo not drawn)"
  labelValue: "false (0)"
- compound: "O=C(CCC1CCCC1)N1CCN(C(=O)c2cc(-c3cccnc3)n[nH]2)CC1"
  labelValue: "true (1)"
- compound: "Cn1nccc1-c1cccc(-c2noc(CNC(=O)Cc3ccc(Cl)cc3)n2)c1"
  labelValue: "false (0)"
- compound: "CCOC(=O)c1[nH]c(C)c(CCC(=O)N2CCC(C(=O)NCc3cccc(OC)c3)CC2)c1C"
  labelValue: "true (1)"
- compound: "O=C(NCc1ccc(F)c(Cl)c1)C1CCN(c2cnc3nccnc3c2)CC1"
  labelValue: "true (1)"
